Source of measurements: ChEMBL document CHEMBL1201862

Tested on: SF-539
Assay: NCI tumour cell line growth inhibition, 48 h
The source made the active and inactive calls. Cut-off read from the data, not from the text of the source: active = GI50 up to about 1.1 µM and inactive = higher.
Permitted responses: YES = active, NO = inactive

[in] Which outcome did this test record for the compound CC1CC(c2ccccc2)=Nc2ccccc2S1 (stereo not drawn) ?
[out] NO

[in] I'd appreciate the recorded outcome for Cc1n[nH]c(=O)n1/N=C/c1ccncc1 from this test.
[out] NO

[in] Given O=C(Nc1ccccc1)Oc1ccccc1C1CCCCC1 , state the outcome it received in this test.
[out] NO

[in] Which result was noted for this compound in the test: OC1(c2ccc(Cl)cc2)c2ccccc2-c2nc3ccccc3n21 (stereo not drawn)
[out] NO

[in] # lookup: test call for CC1(C)CC(c2c[nH]c3ccccc23)=CC2=Nc3ccccc3C21O (stereo not drawn)
[out] NO

---
[in] Hello, I am checking results. What call was entered for C=C1C(=O)O[C@H]2C/C(C)=C/CC[C@]3(C)CCC[C@](C)(CC[C@@H]12)O3 ?
[out] NO

[in] For this compound, state the assay outcome: O=S(=O)(O)CCS [MESNA]
[out] NO

[in] How did this test come out for CC1=CC(=O)CC2(C)CCC(C(C)CC(=O)CC(C)C)CC12 (stereo not drawn) ?
[out] NO

[in] I would be grateful if you could indicate the recorded call for N#Cc1ccc(Oc2cccc(Oc3ccccc3)c2)cc1C#N .
[out] NO

[in] Any idea what this test logged for N#CC(C#N)=CSc1ccccc1 ?
[out] NO

[in] How was O=c1c2ccccc2[nH]c2c(Cl)cc(Cl)c(NC3CCCCC3)c12 classified in this test?
[out] NO

[in] Recorded call for N/N=C(\C(=O)Nc1ccc([N+](=O)[O-])cc1)C(C1=Nc2cc([N+](=O)[O-])ccc2NC1)[N+](=O)[O-] (stereo not drawn) ?
[out] NO

[in] Which result was noted for this compound in the test: C[C@]12CCC(N3CCCC3)CC1=CC[C@@H]1[C@@H]2CC[C@]2(C)C(O)[C@H](n3ccnc3)C[C@@H]12 (stereo partly drawn)
[out] NO

[in] Field: outcome | Entry: CC(O)(P(=O)(O)O)P(=O)(O)OCC(O)CN1CCOCC1 (stereo not drawn)
[out] NO

----------
Tested on: SNB-75
Assay: NCI tumour cell line growth inhibition, 48 h
Calls of active or inactive are those of the source. Rule as the data show it: active = GI50 up to about 1.1 µM and inactive = higher.
Please answer using one outcome listed in active, inactive

[in] # outcome recorded in this test, key = N#Cc1ccc(Oc2cccc(Oc3ccccc3)c2)cc1C#N
[out] inactive

Further cases:
[in] How was C/C(CCn1[nH]c(=O)ccc1=O)=N\NC(=O)C(N)=O classified in this test?
[out] inactive

[in] Record lookup: outcome of this test for COc1ccc(/C=N\N2CC(=O)N3C4C=CC(CC4)N3C2=O)cc1 (stereo not given) ?
[out] inactive

[in] Recorded call for CCC1CNC(=O)CC1CC(=O)OC (stereo not given) ?
[out] inactive

[in] I would be grateful if you could indicate the recorded call for C#CCN(Cc1ccc2nc(-c3ccccc3)c(Cl)nc2c1)c1ccc(F)cc1 .
[out] inactive

[in] What classification did Cc1ccc(-c2[nH]c(=O)n(C3OC(CO)C(O)C(O)C3O)c(=O)c2C#N)cc1 (stereo not given) end up with in this test?
[out] inactive

----------
Tested on: SK-OV-3
Experiment: NCI tumour cell line growth inhibition, 48 h
Calls of active or inactive are those of the source. Rule as the data show it: active = GI50 up to about 1.1 µM and inactive = higher.
Outcomes you can answer with include only these: yes (1) (active), no (0) (inactive)

Check out these entries, answers already filled in.
[in] Assay result, entry COc1ccccc1NC1=NCC(C)S1 (stereo unspecified) — outcome?
[out] no (0)

[in] What classification did Cc1nc2ccccc2nc1N1CCCC1 end up with in this test?
[out] no (0)

[in] Query: recorded result category for COc1cc([C@@H]2c3cc4c(cc3[C@@H](NC(=O)c3ccc(OC(C)=O)cc3)C3COC(=O)[C@@H]32)OCO4)cc(OC)c1O (stereo partly specified) in this test
[out] no (0)

[in] // return assay outcome for Cc1ccc(C(=O)N/N=C(\N=N\c2ccccc2Cl)c2ccc(N(C)C)cc2)cc1
[out] no (0)

[in] # outcome recorded in this test, key = CC1(/C=C/CCSc2ccccc2)CC(=O)C2CC1C2(C)C (stereo unspecified)
[out] no (0)

[in] Test call for this molecule, please: COc1cc(C2c3c(ccc4ccccc34)C(=O)C3CCC(=O)N32)cc(OC)c1O (stereo unspecified)
[out] no (0)

Turning now to a further molecule:
[in] In this assay, the call recorded for Clc1ccc(Oc2ccc(/N=C/c3ccc(Cl)cc3Cl)cc2Cl)cc1 was what?
[out] no (0)

----------
Tested on: ACHN
Assay: NCI tumour cell line growth inhibition, 48 h
Calls of active or inactive are those of the source. Cut-off read from the data, not from the text of the source: active = GI50 up to about 1.1 µM and inactive = higher. *1 amine or outer side, *2 acyl side, *3 side chain or, on linkers, in order; H or OH if unused. Where a SMILES comes first, the peptide text is derived from it. [ ]: non-standard residue; d: D form. The star is where a group is joined. X31 = CC(=O)N(C)SCC(N[*:1])C(=O)[*:2]; Fmoc = O=C(OCC1c2ccccc2-c2ccccc21)*; For = O=C*
Outcomes you can answer with include only these: active, inactive

[in] What call does the record list for CC1(c2cccc(N)c2)C2C(=O)NC(=O)C1C(=O)NC2=O (stereo not drawn) ?
[out] inactive

Further cases:
[in] Which outcome was assigned to CC(=O)N(C)SCC(NC(=O)C(Cc1ccccc1)NC(=O)OCC1c2ccccc2-c2ccccc21)C(=O)NC(Cc1ccccc1)C(=O)NC(Cc1cn(C=O)c2ccccc12)C(=O)NC(CCCCNC(=O)OCC1c2ccccc2-c2ccccc21)C(=O)NC(C(=O)NC(CSN(C)C(C)=O)C(=O)NC(C(N)=O)C(C)O)C(C)O (stereo not drawn) (Fmoc-F[X31]FW(For)K(Fmoc)T[X31]T-NH2; configuration not given here) in this test?
[out] inactive

[in] # lookup: test call for C=CCNC(=O)N(CCC)CCCC(NC(C)=O)C(=O)NCc1ccccc1 (stereo not drawn)
[out] inactive

[in] Fill in: this test's call for CCOC(=O)C1=NOC2(C=C(Br)C(=O)C(Br)=C2)C1 is ___
[out] active

[in] Recorded call for COC(=O)N1C[C@@]2(C=CC3(CC2)OCCO3)c2ccccc21 ?
[out] inactive

[in] What classification did C=C1CC(CNc2cc(Cl)nc(N)n2)C1 end up with in this test?
[out] inactive

[in] Can you look up the reported call for OC1(c2ccc(Cl)cc2)c2ccc3ccccc3c2C2=N[C@H]3CCCC[C@@H]3N21 (stereo partly drawn) for me?
[out] inactive

[in] For COc1cc2c(OC)c3cc(C)oc(=O)c3c(O)c2c(O)c1-c1c(OC)cc2c(OC)c3cc(C)oc(=O)c3c(O)c2c1O , which call appears in the assay record?
[out] inactive

[in] Tell me the assay call for COc1ccc2c(c1)C(=O)C1CC(=O)CCC21 (stereo not drawn) please.
[out] inactive

[in] Query: recorded result category for CCOCc1nc2c(OC)c(-c3nc4ccc(N5CCN(C)CC5)cc4[nH]3)cc(OC)c2[nH]1 in this test
[out] inactive

[in] Which outcome was assigned to COc1ccc2nc(N/N=C/c3ccc(C)s3)cc(C)c2c1 in this test?
[out] inactive

[in] Hi team, can someone confirm the assay call for O=C(O)CN1CCN2CCOCCN(CC1)CCN(CC(=O)O)CC2 ?
[out] inactive

[in] Status in this test for COc1cc(C2c3c(ccc4ccccc34)C(=O)C3CCC(=O)N32)cc(OC)c1O (stereo not drawn) ?
[out] inactive

----------
System: SNB-19
Assay: NCI tumour cell line growth inhibition, 48 h
Activity calls are given as the source filed them. No stated cut-off is given here; in the data, active = GI50 up to about 1.1 µM and inactive = higher.
Kindly state GI50 for each of the entries shown.

Answer for every listed entry: what is its GI50? The entries follow.
1. CCc1ncc(C(C)(O)c2ccccc2)n1Cc1ccccc1 (centres undefined)
2. COc1cc2c(OC)c3cc(C)oc(=O)c3c(O)c2c(O)c1-c1c(OC)cc2c(OC)c3cc(C)oc(=O)c3c(O)c2c1O
3. CCCCCCc1cc2cc(-c3csc(CC#N)n3)c(=O)oc2cc1O
4. O=S(=O)(N1CCCCN(S(=O)(=O)C(F)(F)F)CCCN(S(=O)(=O)C(F)(F)F)CCCCN(S(=O)(=O)C(F)(F)F)CCCN(S(=O)(=O)C(F)(F)F)CCCCN(S(=O)(=O)C(F)(F)F)CCCN(S(=O)(=O)C(F)(F)F)CCCCN(S(=O)(=O)C(F)(F)F)CCC1)C(F)(F)F

[out]
1: 42.4 µM (inactive); 2: 25.2 µM (inactive); 3: 14.4 µM (inactive); 4: > 31.6 µM (inactive)

----------
Please provide measured GI50 for the entries that follow.
System: MDA-MB-231
Assay: NCI tumour cell line growth inhibition, 48 h
Active and inactive are the calls of the source. Rule as the data show it: active = GI50 up to about 1.1 µM and inactive = higher.

Worked examples, 3 molecules total:
Per the records, this molecule ( O=C(O)CN1CCN2CCOCCN(CC1)CCN(CC(=O)O)CC2 ) has GI50 equal to > 100 µM (inactive)

Data point: O=C(C(Cl)Cl)N(O)c1ccccc1OCc1ccccc1 ; GI50 = 44.8 µM (inactive)

The molecule listed as COc1cc(S(=O)(=O)Nc2nc(-c3ccc(N4C(=O)/C(=C/c5ccccc5[N+](=O)[O-])N=C4c4ccccc4)cc3)cs2)ccc1Cl shows GI50 equal to 19.9 µM (inactive)

// for each molecule below, give its GI50
1. CCOC(=O)c1sc2nc(SC)nc(N3CCCCC3)c2c1N
2. C=C(CCC/C(C)=C/C=C/[C@@H](C)CCCc1ccoc1)C[C@@H]1OC(=O)[C@H](C)[C@@H]1O
3. CCCCNC(=S)Nc1nc(C(=O)NNC(=S)NCc2ccccc2)cs1
4. CCOC(=O)c1[nH]c(Br)c(-c2ccc(Br)cc2)c1Br
5. O=c1oc2ccc(-n3c(=O)c4ccccc4c4ccccc4c3=O)cc2c2ccccc12
6. COC(=O)N[C@@H]1C[C@H]2CC[C@]1(O[Si](C(C)C)(C(C)C)C(C)C)C(=O)C2
7. CC1(C)C2CCC(O)(C2)C1N (stereo not given)

[out]
1: > 100 µM (inactive); 2: 7.48 µM (inactive); 3: 66.4 µM (inactive); 4: 1.2 µM (inactive); 5: > 100 µM (inactive); 6: 20.5 µM (inactive); 7: > 100 µM (inactive)
